Provenance of the data: patent US9708336B2

Molecular target: VIM-1 (Pseudomonas aeruginosa (strain ATCC 15692 / DSM 22644 / CIP 104116 / JCM 14847 / LMG 12228 / 1C / PRS 101 / PAO1), UniProt A0A0F7KYQ8)
Assay: Enzyme activity: determination of IC50, fluorescence assay with CCF2-FA substrate (VIM-1)
Assay type: biochemical
Settings: VIM-1 enzyme, CCF2-FA fluorescence assay; read-out: VIM-1 IC50
Let's look at some compounds and their measured log10 of IC50.
In plain terms, each number is the log10 of measured IC50 in nM.

| Given Smiles | Observed Property | Reported Measurement |
| --- | --- | --- |
| CN(CCC(=O)O)Cc1ccc(-c2cccc(S(N)(=O)=O)c2-c2nnn[nH]2)cc1 | log10 of IC50 | 2.43 |
| NS(=O)(=O)c1nccc(N2CCC3(CCNCC3)CC2)c1-c1nn[nH]n1 | log10 of IC50 | 2.66 |
| NS(=O)(=O)c1cccc(-c2ccc3[nH]ncc3c2)c1-c1nn[nH]n1 | log10 of IC50 | 1.13 |
| Nc1ncc(-c2cccc(S(N)(=O)=O)c2-c2nnn[nH]2)cn1 | log10 of IC50 | 2.45 |
| NS(=O)(=O)c1cc(Cl)cc(-c2ccc3c(c2)C(=O)NC3)c1-c1nn[nH]n1 | log10 of IC50 | 2.66 |
| Cc1ccc(-c2ccc(C(F)(F)F)c(S(N)(=O)=O)c2-c2nn[nH]n2)cc1 | log10 of IC50 | -0.05 |
| NS(=O)(=O)c1cccc(-c2ccc(CNCCc3ncc[nH]3)cc2)c1-c1nnn[nH]1 | log10 of IC50 | 2.34 |
| NC(=O)c1nccc2cc(-c3cccc(S(N)(=O)=O)c3-c3nn[nH]n3)ccc12 | log10 of IC50 | 1.09 |

Ask: Consider the compound "COc1cccc(S(N)(=O)=O)c1-c1nnn[nH]1" and give its measured log10 of IC50.
Reply: 3.97

Ask: Consider next the compound "NS(=O)(=O)c1c(C(F)(F)F)ccc(-c2cccc3ncccc23)c1-c1nn[nH]n1" in the same way.
Reply: -0.87

----------
Let's look at some compounds and their measured log10(IC50).
Biological target: IMP-1 (Serratia marcescens, UniProt P52699)
Sequence (P52699 whole entry, looked up): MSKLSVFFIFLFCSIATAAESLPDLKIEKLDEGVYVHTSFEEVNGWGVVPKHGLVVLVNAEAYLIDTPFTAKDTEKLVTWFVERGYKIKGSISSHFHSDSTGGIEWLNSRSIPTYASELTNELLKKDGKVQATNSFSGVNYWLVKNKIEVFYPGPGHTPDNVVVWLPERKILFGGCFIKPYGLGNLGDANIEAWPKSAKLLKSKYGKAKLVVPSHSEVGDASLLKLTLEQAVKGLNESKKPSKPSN
Experiment: biochemical
Format: biochemical
Settings: fluorescence assay with CCF2-FA substrate; read-out: IMP-1 IC50
In plain terms, each number is the log10 of measured IC50 in nM.

| Compound | Tested On | log10(IC50) |
| --- | --- | --- |
| NC(=O)c1cccc(-c2ccnc(S(N)(=O)=O)c2-c2nn[nH]n2)c1 | IMP-1 (Serratia marcescens, UniProt P52699) | 3.46 |
| Nc1nc2c(F)cc(-c3ccc(C(F)(F)F)c(S(N)(=O)=O)c3-c3nnn[nH]3)cc2s1 | IMP-1 (Serratia marcescens, UniProt P52699) | -0.05 |

Ask: Consider the compound "NCCNC1CCN(c2ccc(C(F)(F)F)c(S(N)(=O)=O)c2-c2nnn[nH]2)CC1" and give its measured log10(IC50).
Reply: 1.97

Ask: Consider next the compound NS(=O)(=O)c1c(C(F)(F)F)ccc(-c2ccc(C3CN(C4CCNC4)C3)cc2)c1-c1nnn[nH]1 (stereo not drawn) in the same way.
Reply: 0.45

Ask: Consider next the compound "Cc1cc2nccn2cc1-c1cccc(S(N)(=O)=O)c1-c1nnn[nH]1" in the same way.
Reply: 2.74

Ask: Consider next the compound "NS(=O)(=O)c1cccc(-c2ccc3[nH]c(=O)[nH]c3c2)c1-c1nn[nH]n1" in the same way.
Reply: 2.85

----------
Let's look at some compounds and their measured IC50.
Molecular target: IMP-1 (Serratia marcescens, UniProt P52699)
Assay: biochemical
Type: biochemical
Conditions: IMP-1 enzyme, CCF2-FA fluorescence assay; read-out: IMP-1 IC50
Could you give me the number in µM? Just the number is fine.

// below: answered compounds
| Compound | Tested On | IC50 (µM) |
| --- | --- | --- |
| NS(=O)(=O)c1cccc(-c2ccc(CN3CCC(O)CC3)cc2)c1-c1nnn[nH]1 | IMP-1 (Serratia marcescens, UniProt P52699) | 0.195 |
| NS(=O)(=O)c1cccc(-c2ccc(CN3CCC(C(=O)O)C3)cc2)c1-c1nnn[nH]1 (centres unmarked) | IMP-1 (Serratia marcescens, UniProt P52699) | 0.373 |
| NCc1nc(-c2ccc(-c3cccc(S(N)(=O)=O)c3-c3nn[nH]n3)cc2)no1 | IMP-1 (Serratia marcescens, UniProt P52699) | 0.104 |

Ask: Consider the compound "CC1(C)CCN(Cc2ccc(-c3cccc(S(N)(=O)=O)c3-c3nnn[nH]3)cc2)C1" and give its measured IC50.
Reply: 0.232

Ask: Consider next the compound NS(=O)(=O)c1cccc(-c2ccc(CNC3CCNC3=O)cc2)c1-c1nnn[nH]1 (centres unmarked) in the same way.
Reply: 0.0486

----------
Biological target: VIM-1 (Pseudomonas aeruginosa (strain ATCC 15692 / DSM 22644 / CIP 104116 / JCM 14847 / LMG 12228 / 1C / PRS 101 / PAO1), UniProt A0A0F7KYQ8)
Assay: Enzyme activity: determination of IC50, fluorescence assay with CCF2-FA substrate (VIM-1)
Assay type: biochemical
Settings: VIM-1 enzyme, CCF2-FA substrate; read-out: VIM-1 IC50
Observed Property: pIC50
Conceptually, pIC50 converts a concentration in mol/L into minus its log10.

| Compound | pIC50 |
| --- | --- |
| Nc1ncc(-c2ccc(-c3cccc4sc(N)nc34)c(-c3nn[nH]n3)c2S(N)(=O)=O)s1 | 8.38 |

Ask: Consider the compound "NCCc1ccc(-c2ccc(C(F)(F)F)c(S(N)(=O)=O)c2-c2nnn[nH]2)cc1" and give its measured pIC50.
Reply: 9.60

Ask: Consider next the compound NS(=O)(=O)c1cccc(-c2ccc(N3CCC(CO)C3)nc2)c1-c1nnn[nH]1 (stereo not shown) in the same way.
Reply: 6.85

Ask: Consider next the compound "Nc1ccc(-c2ccc(C[C@H]3CC[C@H](N)CC3)c(S(N)(=O)=O)c2-c2nnn[nH]2)cn1" in the same way.
Reply: 8.16

Ask: Consider next the compound "Nc1nc2cccc(-c3ccc(C(F)(F)F)c(S(N)(=O)=O)c3-c3nnn[nH]3)c2s1" in the same way.
Reply: 10.20

----------
Biological target: VIM-1 (Pseudomonas aeruginosa (strain ATCC 15692 / DSM 22644 / CIP 104116 / JCM 14847 / LMG 12228 / 1C / PRS 101 / PAO1))
Assay: Enzyme activity: determination of IC50, fluorescence assay with CCF2-FA substrate (VIM-1)
Type: biochemical
Conditions: VIM-1 enzyme, CCF2-FA substrate; read-out: VIM-1 IC50
Let's look at some compounds and their measured IC50.
Could you give me the number in nM? Just the number is fine.

| Given Smiles | Units Of Measure | IC50 |
| --- | --- | --- |
| NS(=O)(=O)c1c(C2CC2)ccc(-c2cccc3ncccc23)c1-c1nn[nH]n1 | nM | 0.991 |
| NS(=O)(=O)c1c(C(F)(F)F)ccc(-c2ccc(N3CCNCC3)cc2)c1-c1nnn[nH]1 | nM | 0.598 |

Ask: Consider the compound "Nc1ccc(CN[C@H]2CC[C@H](c3ccc(C(F)(F)F)c(S(N)(=O)=O)c3-c3nnn[nH]3)CC2)cn1" and give its measured IC50.
Reply: 0.684

Ask: Consider next the compound "NS(=O)(=O)c1c(C(F)(F)F)ccc(-c2ccc(S(=O)(=O)CCO)cc2)c1-c1nnn[nH]1" in the same way.
Reply: 0.657

----------
Let's look at some compounds and their measured IC50.
Target: UniProt P52699
Experiment: biochemical
Format: biochemical
Conditions: fluorescence assay with CCF2-FA substrate; read-out: IMP-1 IC50
Could you give me the number in nM? Just the number is fine.

| Given Smiles | Observed Property | Reported Measurement |
| --- | --- | --- |
| NS(=O)(=O)c1c(C(F)(F)F)ccc(N2C[C@@H](O)[C@@H](O)C2)c1-c1nnn[nH]1 | IC50 | 111 |
| Cn1ncc2cc(-c3cccc(S(N)(=O)=O)c3-c3nn[nH]n3)ccc21 | IC50 | 81.9 |
| NS(=O)(=O)c1cccc(-c2ccc(-n3nccn3)cc2)c1-c1nn[nH]n1 | IC50 | 72.3 |

Could you now consider this next compound?
Ask: Consider the compound "NCCN[C@H]1CC[C@@H](c2ccc(C(F)(F)F)c(S(N)(=O)=O)c2-c2nnn[nH]2)CC1" and give its measured IC50.
Reply: 72.9

----------
Let's look at some molecules and their measured pIC50.
Target: VIM-1 (Pseudomonas aeruginosa (strain ATCC 15692 / DSM 22644 / CIP 104116 / JCM 14847 / LMG 12228 / 1C / PRS 101 / PAO1))
Assay: Enzyme activity: determination of IC50, fluorescence assay with CCF2-FA substrate (VIM-1)
Assay type: biochemical
Conditions: fluorescence assay with CCF2-FA substrate; read-out: VIM-1 IC50
Conceptually, pIC50 converts a concentration in mol/L into minus its log10.

| Molecule | pIC50 |
| --- | --- |
| NC1CC(N2CC(c3ccc(-c4ccc(C(F)(F)F)c(S(N)(=O)=O)c4-c4nnn[nH]4)cc3)C2)C1 (centres unmarked) | 7.70 |

Could you now consider this next molecule?
Ask: Consider the molecule "NS(=O)(=O)c1nccc(-c2ccc(C3CCOCC3)cc2)c1-c1nnn[nH]1" and give its measured pIC50.
Reply: 6.83
